# System: PRKG2
# applied-conditions: concentration: 1 μM,replicates: in singlicate; n = 1;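 further: KINOMEscan kinase panel screen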
In this section we review reported %Inh values for a set of molecules.

molecule | %Inh, %
Cn1ccc2ncnc(Oc3ccc(NC(=O)Nc4cccc(C(F)(F)F)c4)c(F)c3)c21 | 17
CCNCC(Cc1ccccc1)NC(=O)c1cc(Br)c(-c2ccnc3[nH]ccc23)s1.Cl.Cl (stereo not drawn) | 99
CCN1CCN(CCCC(=O)Nc2n[nH]c3nc(-c4ccc(O)cc4)c(Br)cc23)CC1 | 6

###

# Tested on: CSF1R-autoinhibited
# applied-conditions: concentration: 1 μM,replicates: in singlicate; n = 1
readout-name: %Inh (%)

smiles-str | readout-name | unit-spec | measurement
COc1cccc(C2=C(Nc3cccc(Cl)c3)C(=O)NC2=O)c1 | %Inh | % | 0
COC(=O)c1cccc(NC(=O)NC2CCN(c3ccnc(NCc4ccc(F)cc4)n3)CC2)c1 | %Inh | % | 12
Cc1cccc2c(-c3ccncc3)c(-c3ccc(F)cc3)nn12.Cl | %Inh | % | 4
CC(C)S(=O)(=O)N1CCN(Cc2ccc3c(c2)nc(NC(=O)c2ccsc2)n3C[C@H](O)c2ccccc2)CC1 | %Inh | % | 45
O=C(Nc1ccc(Oc2ccc3nc(NC(=O)C4CC4)cn3n2)c(F)c1)c1cccn(-c2ccccc2)c1=O | %Inh | % | 0
COc1cc2c(Nc3ccc(NC(=O)c4ccccc4)cc3)ncnc2cc1OCCCN1CCOCC1 | %Inh | % | 0
COc1cccc(OC)c1C(=O)Nc1cccc(-c2nn3ccccc3c2-c2ccnc(Nc3cccc(F)c3)n2)c1 | %Inh | % | 4
C[C@@H](Oc1cc(-n2cnc3cc(-c4cnn(C)c4)ccc32)sc1C(N)=O)c1ccccc1Cl | %Inh | % | 0
C[C@@H](Oc1cc(-n2cnc3cc(-c4ccncc4)ccc32)sc1C(N)=O)c1ccccc1Cl | %Inh | % | 0
Cc1ccc2c(-c3ccnc(Nc4ccc(C(F)(F)F)cc4)n3)cnn2n1 | %Inh | % | 0
Cn1ccc2ncnc(Oc3ccc(NC(=O)Nc4cncc(C(F)(F)F)c4)c(Cl)c3)c21 | %Inh | % | 0
CCn1c(-c2nonc2N)nc2cncc(CNC3CCNCC3)c21.Cl | %Inh | % | 0
CSc1nccc(-c2c(-c3ccc(F)cc3)ncn2CCCN2CCOCC2)n1.Cl | %Inh | % | 0
CN1CCN(CCCNc2nccc(-c3c(-c4ccc(F)cc4)nn4cc(C(N)=O)ccc34)n2)CC1 | %Inh | % | 0
Nc1nccc(-c2ccc3c(N)n[nH]c3c2)n1 | %Inh | % | 0
CC(C)c1nc(-c2cccc(NS(=O)(=O)c3ccccc3)c2)c(-c2ccnc(Nc3ccc4c(c3)CN(C)CC4)n2)s1 | %Inh | % | 0
Cn1ccc2ncnc(Oc3ccc(NC(=O)Nc4ccnc(C(F)(F)F)c4)c(Cl)c3)c21 | %Inh | % | 6
